A collection of molecules and their measured Herbicidal action against [%] LOLRI
- Tested on: LOLRI: Lolium rigidum
- ASSAY_DETAILS: Post-emergence herbicidal action
- Format: in vivo
- CONDITION_DESCRIPTION: Table C2, post-emergence, dosage 320 (0.32 kg of active substance per hectare), rated visually after about 3 weeks
MEASURED_PARAMETER: Herbicidal action against [%] LOLRI (%)

                                   molecule                   measured_parameter  reading
0  CCOC(=O)[C@H]1CC[C@H](NC(=O)[C@@]2(C(F)(F)F)CC(c3cc(F)cc(F)c3)=NO2)C1 [Example I-42]  Herbicidal action against [%] LOLRI       90
1  COC(=O)C1CCC(NC(=O)C2(C(F)(F)F)CC(c3cc(C)cc(Cl)c3)=NO2)C1 (mixture of isomers) [Example I-802]  Herbicidal action against [%] LOLRI       90
2  O=C(OCCCl)C1CCC(NC(=O)C2(C(F)(F)F)CC(c3cccc(F)c3)=NO2)C1 (mixture of isomers) [Example I-409]  Herbicidal action against [%] LOLRI      100
3  O=C(OCC(F)(F)F)[C@@H]1CC[C@H](NC(=O)[C@@]2(C(F)(F)F)CC(c3cc(F)cc(F)c3)=NO2)C1 [Example I-123]  Herbicidal action against [%] LOLRI      100

---

A collection of compounds and their measured Herbicidal action against [%] LOLRI
- Test system: LOLRI: Lolium rigidum
- ASSAY_DETAILS: Post-emergence herbicidal action
- Assay type: in vivo
- CONDITION_DESCRIPTION: Table C4, post-emergence, 320 g/ha, rated visually after about 3 weeks
MEASURED_PARAMETER: Herbicidal action against [%] LOLRI (%)

>>> print(df.to_string())
                                   compound            system_name  reading
0  COC(=O)[C@H]1CC[C@H](NC(=O)C2(C(F)(F)F)CC(c3cc(F)cc(F)c3)=NO2)C1 (stereo partly drawn) [Example I-20]  LOLRI: Lolium rigidum       90
1  Cc1cc(Cl)cc(C2=NOC(C(=O)NC3CCC(C(=O)OCCCl)C3)(C(F)(F)F)C2)c1 (mixture of isomers) [Example I-838]  LOLRI: Lolium rigidum      100
2  CC(C)(C)OC(=O)[C@H]1CC[C@@H](NC(=O)C2(C(F)(F)F)CC(c3cc(F)cc(F)c3)=NO2)C1 (relative stereo) [Example I-85]  LOLRI: Lolium rigidum       90
3  CCOC(=O)[C@@H]1CC[C@H](NC(=O)[C@@]2(C(F)(F)F)CC(c3cc(F)cc(F)c3)=NO2)C1 [Example I-39]  LOLRI: Lolium rigidum       90
4  COC(=O)[C@H]1CC[C@H](NC(=O)[C@@]2(C(F)(F)F)CC(c3cc(F)cc(F)c3)=NO2)C1 [Example I-28]  LOLRI: Lolium rigidum       90
5  Cc1cc(Cl)cc(C2=NOC(C(=O)NC3CCC(C(=O)OCC(F)(F)F)C3)(C(F)(F)F)C2)c1 (mixture of isomers) [Example I-844]  LOLRI: Lolium rigidum       90

---

- Tested on: HORMU: Hordeum murinum
- ASSAY_DETAILS: Post-emergence herbicidal action
- Type: in vivo
- CONDITION_DESCRIPTION: Table C2, post-emergence, dosage 320 (0.32 kg of active substance per hectare), rated visually after about 3 weeks
A collection of compounds and their measured Herbicidal action against [%] HORMU
MEASURED_PARAMETER: Herbicidal action against [%] HORMU (%)

>>> df
                            chemical_smiles             system_name                   measured_parameter  uom  reading
0  CCCOC(=O)[C@@H]1CC[C@H](NC(=O)[C@@]2(C(F)(F)F)CC(c3cc(F)cc(F)c3)=NO2)C1  HORMU: Hordeum murinum  Herbicidal action against [%] HORMU    %      100
1  CC(C)OC(=O)[C@@H]1CC[C@H](NC(=O)[C@@]2(C(F)(F)F)CC(c3cc(F)cc(F)c3)=NO2)C1  HORMU: Hordeum murinum  Herbicidal action against [%] HORMU    %      100
2  O=C(OCCCl)[C@@H]1CC[C@H](NC(=O)[C@@]2(C(F)(F)F)CC(c3cc(F)cc(F)c3)=NO2)C1  HORMU: Hordeum murinum  Herbicidal action against [%] HORMU    %       90

---

- Tested on: HORMU: Hordeum murinum
- ASSAY_DETAILS: Post-emergence herbicidal action
- Format: in vivo
- CONDITION_DESCRIPTION: Table C2, post-emergence, dosage 320 (0.32 kg of active substance per hectare), rated visually after about 3 weeks
A collection of compounds and their measured Herbicidal action against [%] HORMU
MEASURED_PARAMETER: Herbicidal action against [%] HORMU

In [3]: df
Out[3]:
                                   compound                   measured_parameter  reading
0  COC(=O)C1CCC(NC(=O)C2(C(F)(F)F)CC(c3cc(F)c(F)c(F)c3)=NO2)C1 (mixture of isomers) [Example I-171]  Herbicidal action against [%] HORMU      80%
1  CCOC(=O)[C@H]1CC[C@H](NC(=O)[C@@]2(C(F)(F)F)CC(c3cc(F)cc(F)c3)=NO2)C1 [Example I-42]  Herbicidal action against [%] HORMU      90%
2  O=C(OCCCl)C1CCC(NC(=O)C2(C(F)(F)F)CC(c3cccc(F)c3)=NO2)C1 (mixture of isomers) [Example I-409]  Herbicidal action against [%] HORMU     100%
